Sourced from patent US9051310B2

Target: glutathione S-transferase (GST)-linked full-length human Syk protein (Homo sapiens)
Catalogue of IC50 readings, one per entry.

{"Smiles Text": "Cc1ncc(Nc2nc(N[C@H](c3cc(F)cc(F)c3)[C@H](C)N)c(F)cc2C(N)=O)cc1-n1nccn1", "Target Under Test": "glutathione S-transferase (GST)-linked full-length human Syk protein (Homo sapiens)", "IC50": "10 to 50 nM"}

## Input Check the records and state IC50 for `C[C@H](N)[C@H](Nc1nc(Nc2ccc3c(c2)c(N(C)C)nn3C)c(C(N)=O)cc1F)C1CCC1`
## Output < 10 nM

## Input Identify measured IC50 associated with `CC(C)C[C@@H](Nc1nc(Nc2ccc3cnn(C)c3c2)c(C(N)=O)cc1F)[C@H](C)N`
## Output < 10 nM

## Input Entry `CC[C@H](N)[C@@H](C)Nc1nc(Nc2ccc3c(cnn3C)c2)c(C(N)=O)cc1F` needs its IC50 filled in; supply it.
## Output < 10 nM

## Input Find the measured IC50 of `COc1ccc([C@@H](Nc2nc(Nc3cc(OC)nc(OC)c3)c(C(N)=O)cc2F)[C@H](C)N)cc1` and report it.
## Output 10 to 50 nM

## Input Note IC50 for the molecule shown: `CCC[C@@H](Nc1nc(Nc2ccc3c(c2)c(OC(F)F)nn3CCOC)c(C(N)=O)cc1F)[C@H](C)N`
## Output < 10 nM

## Input Indicate its recorded IC50; the molecule in question is `C[C@H](N)[C@H](Nc1nc(Nc2cnc(N3CCOCC3)c(F)c2)c(C(N)=O)cc1F)C1CC1`
## Output 10 to 50 nM

###

Reported values of pIC50 for individual entries
Target: glutathione S-transferase (GST)-linked full-length human Syk protein (Homo sapiens, UniProt P43405)
Construct: glutathione S-transferase (GST)-linked full-length human Syk protein; purchased Carna Biosciences; host or cells: Baculovirus expression system
Test: Syk enzyme assay
Assay type: biochemical
Details: 0.83 nM Syk, time-resolved fluorescence; read-out: IC50 of Syk-inhibitory activity
pIC50: −log10 of the molar value.

{"Molecule": "CC[C@@H](Nc1nc(Nc2ccc3c(c2)c(OC)nn3CC)c(C(N)=O)cc1F)[C@H](C)N [Example 2-52]", "pIC50": "> 8.00"}
{"Molecule": "COc1cc(Nc2nc(N[C@H](C(C)C)[C@H](C)N)c(F)cc2C(N)=O)cc(OC)n1 [Example 2-108]", "pIC50": "7.00 to 7.30"}
{"Molecule": "CC[C@@H](Nc1nc(Nc2cc(F)c3c(c2)c(OC)nn3C)c(C(N)=O)cc1F)[C@H](C)N [Example 2-152]", "pIC50": "> 8.00"}
{"Molecule": "CC[C@H](N)[C@@H](C)Nc1nc(Nc2ccc3c(c2)c(NC)nn3C)c(C(N)=O)cc1F [Example 2-499]", "pIC50": "7.30 to 8.00"}

## Input Please supply the value of reported pIC50 for the item Cc1ncc(Nc2nc(N[C@H](c3ccccn3)[C@H](C)N)c(F)cc2C(N)=O)cc1-n1nccn1 [Example 2-403]
## Output 7.30 to 8.00

## Input Give reported pIC50 value for COc1nn(C)c2ccc(Nc3nc(N[C@@H](CN)CC4CC4)c(F)cc3C(N)=O)cc12 [Example 2-79]
## Output > 8.00

## Input Return reported pIC50. Input molecule: CC[C@@H](Nc1nc(Nc2cnc(N3CCOCC3)c(F)c2)c(C(N)=O)cc1F)[C@H](C)N [Example 2-259]
## Output 7.00 to 7.30

## Input Please report the measured pIC50 for C[C@H](N)[C@H](Nc1nc(Nc2cccc3ncccc23)c(C(N)=O)cc1F)C1CC1 [Example 2-404]
## Output > 8.00

## Input Quickly give me recorded pIC50 for Cc1cc(C)cc(Nc2nc(N[C@H](C3CCC3)[C@H](C)N)c(F)cc2C(N)=O)c1 [Example 2-26]
## Output > 8.00
